PROTOCOL_SUMMARY: Pharmacokinetics in mice after intravenous injection or gavage
DETAILS: BALB/c, mouse, plasma, po, 5 mg/kg
We use 2 h as the dividing line for half-life: on or above the line is 1, below is 0.

Example entries and their recorded answers appear below.
1. CNC(=O)c1ccc(N2CCN(Cc3cc(OC(F)F)c4nc(C)c(=O)[nH]c4c3)CC2)c(F)n1    1
2. Cc1nc2c(OC(F)F)cc(CN3CC=C(c4ccc(C(=O)NC5CC5)nc4F)CC3)cc2[nH]c1=O    1
3. CC#Cc1cc(CN2CCN(c3ccc(C(=O)NC)nc3F)CC2)cc2[nH]c(=O)c(C)nc12    0
4. CC#Cc1cc(CN2CC=C(c3ccc(C(=O)NC4CC4)nc3F)CC2)c(F)c2[nH]c(=O)c(C)nc12    0

## Input Check the entry CC#Cc1cc(CN2CCN(c3ccc(C(=O)NC4CC4)nc3F)CC2)cc2[nH]c(=O)c(C)nc12 : does half-life equal or exceed 2 h?
## Output 0

## Input Here is the next compound: CNC(=O)c1ccc(C2=CCN(Cc3cc(OC(F)F)c4nc(C)c(=O)[nH]c4c3)CC2)c(F)n1
## Output 1
